Origin of measurements: paper PMC5540273

Tested on: ULK2;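 further: KINOMEscan kinase panel screen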
Conditions: concentration: 1 μM, replicates: in singlicate; n = 1
// reported %Inh per item
ASSAY_METRIC: %Inh (%)

1. Nc1ncnc2[nH]c(-c3ccccc3)nc12: 5
2. Cc1cccc(-c2nc(-c3ccc(S(C)(=O)=O)cc3)sc2-c2ccnc(NCCc3ccccc3)c2)c1: 8
3. Cc1cc(-c2ccc3c(c2)CC[C@@H](N[C@@H](C)c2ccccc2)C3)cnc1N.Cl: 8
4. O=C(Nc1n[nH]c2cc(-c3cccc(F)c3F)ccc12)C1CC1: 51
5. C[C@@H]1CCCCN1c1cc(-c2ccc3c(N)n[nH]c3c2)nc(N)n1: 0
6. Fc1cccc(COc2nnc(-c3ccc4c(c3)CCO4)o2)c1: 14
7. Cc1nnc(-c2ccc3occ(-c4ccc(S(C)=O)cc4)c3c2)[nH]1 (stereo not shown): 23
8. COC(=O)c1c(-c2ccccc2)c2cc(C(=O)O)ccc2c(=O)n1Cc1ccccc1: 0
9. CCn1c(-c2cccnc2O)nc2cnccc21: 0
10. Cn1ccc2ncnc(Oc3cccc(C(=O)Nc4ccccc4)c3)c21: 6
11. O=C(Nc1ccc2c(c1)OCO2)NC1CCN(c2ccnc(Nc3ccc(F)cc3)n2)C1 (stereo not shown): 0
12. Cc1cc(N2Cc3ccccc3C2)nc(Nc2ccc(S(=O)(=O)N3CCOCC3)cc2)n1.Cl: 0
13. CCCc1ccc(S(=O)(=O)NC2CCN(c3ccnc(Nc4ccc(F)cc4)n3)C2)cc1 (stereo not shown): 0
14. O=C(Nc1n[nH]c2nc(-c3nccs3)c(Br)cc12)C1CCCC1: 0
15. COc1cccc(-c2cc(-c3c[nH]nc3-c3ccccn3)ccn2)c1: 0
16. CC(C)(C)c1ccc(C(=O)Nc2cn3cc(Cl)ccc3n2)cc1: 0
17. COc1cccc(NC(=O)NC2CCN(c3ccnc(Nc4ccc(F)cc4)n3)C2)c1 (stereo not shown): 0
18. O=C1NC(=O)C(N2CCc3ccccc32)=C1c1ccccc1Cl: 6
19. CC(C)(C)c1ccc(C(=O)Nc2cn3cc(-c4cccnc4)ccc3n2)cc1: 14
